Measured values drawn from ChEMBL document CHEMBL4311993 for this set.

Target: Ectonucleoside triphosphate diphosphohydrolase 3 (Homo sapiens)
Sequence (whole entry): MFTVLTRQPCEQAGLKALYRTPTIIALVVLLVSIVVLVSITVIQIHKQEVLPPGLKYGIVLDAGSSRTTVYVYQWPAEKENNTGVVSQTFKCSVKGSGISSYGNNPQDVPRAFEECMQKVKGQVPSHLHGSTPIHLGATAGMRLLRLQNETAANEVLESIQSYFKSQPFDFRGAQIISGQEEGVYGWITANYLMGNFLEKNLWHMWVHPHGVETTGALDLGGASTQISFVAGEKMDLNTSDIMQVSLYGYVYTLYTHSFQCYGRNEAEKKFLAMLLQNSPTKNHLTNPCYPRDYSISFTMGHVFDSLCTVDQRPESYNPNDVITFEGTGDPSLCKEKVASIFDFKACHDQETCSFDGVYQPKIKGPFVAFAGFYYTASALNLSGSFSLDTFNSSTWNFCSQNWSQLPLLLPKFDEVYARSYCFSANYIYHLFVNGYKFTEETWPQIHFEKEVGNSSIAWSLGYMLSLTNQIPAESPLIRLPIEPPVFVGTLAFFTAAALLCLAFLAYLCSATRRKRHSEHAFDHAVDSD
Assay: Inhibition of human NTPdase-3 expressed in COS7 cell membranes at 100 uM using ATP as substrate preincubated for 3 mins followed by susbtrate addition and measured after 10 mins by malachite green dye based method
Active and inactive are the calls of the source. The rule behind the calls is not given here.
API: response.call in active, inactive

Here are 2 compounds together with their reported answers.
O=c1ccn(COCCOP(=S)(S)OP(=O)(O)C(Cl)(Cl)P(=O)(O)O)c(=O)[nH]1 (stereo unspecified) ... active
O=c1ccn(COCCO[PH](=O)O)c(=O)[nH]1 ... inactive

Request: How did this test come out for O=c1ccn(COCCOP(=S)(S)OP(=O)(O)CP(=O)(O)O)c(=O)[nH]1 (stereo unspecified) ?
Response: active

Request: What about this compound? "O=c1ccn(COCCOP(=O)(O)C(Cl)(Cl)P(=O)(O)O)c(=O)[nH]1"
Response: active

Request: For "O=c1ccn(COCCOP(=O)(O)O)c(=O)[nH]1" then?
Response: inactive

Request: Now consider "O=c1ccn(COCCOP(=O)(O)CP(=O)(O)O)c(=O)[nH]1" and answer again.
Response: active

====

Biological target: Ectonucleotide pyrophosphatase/phosphodiesterase family member 3 (Homo sapiens) (UniProt O14638)
Sequence (O14638 whole entry): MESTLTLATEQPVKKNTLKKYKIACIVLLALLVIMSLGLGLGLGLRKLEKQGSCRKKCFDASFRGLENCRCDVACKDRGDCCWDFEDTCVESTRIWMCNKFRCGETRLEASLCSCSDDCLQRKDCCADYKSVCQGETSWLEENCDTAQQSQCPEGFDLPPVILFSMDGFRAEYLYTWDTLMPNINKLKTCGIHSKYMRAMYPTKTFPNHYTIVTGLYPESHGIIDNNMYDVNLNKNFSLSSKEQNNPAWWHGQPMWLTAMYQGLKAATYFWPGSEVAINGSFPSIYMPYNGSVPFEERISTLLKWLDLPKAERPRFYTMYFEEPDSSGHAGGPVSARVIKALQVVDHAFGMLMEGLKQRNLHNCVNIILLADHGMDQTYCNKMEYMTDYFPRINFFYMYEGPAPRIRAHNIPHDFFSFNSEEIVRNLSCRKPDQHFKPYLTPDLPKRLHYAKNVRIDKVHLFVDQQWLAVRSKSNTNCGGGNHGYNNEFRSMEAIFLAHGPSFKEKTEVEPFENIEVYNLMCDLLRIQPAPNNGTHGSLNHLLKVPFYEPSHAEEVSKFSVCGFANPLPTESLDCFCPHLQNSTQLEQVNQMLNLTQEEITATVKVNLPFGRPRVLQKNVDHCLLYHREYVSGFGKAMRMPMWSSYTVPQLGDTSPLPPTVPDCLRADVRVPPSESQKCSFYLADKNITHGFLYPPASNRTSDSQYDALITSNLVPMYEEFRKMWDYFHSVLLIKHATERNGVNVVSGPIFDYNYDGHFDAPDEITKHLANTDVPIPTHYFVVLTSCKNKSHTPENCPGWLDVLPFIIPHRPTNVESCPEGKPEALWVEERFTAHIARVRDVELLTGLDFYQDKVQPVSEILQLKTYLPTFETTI
Experiment: Inhibition of human NPP3 expressed in COS7 cell membranes at 100 uM using pNP-TMP as substrate preincubated for 3 mins followed by substrate addition and measured after 15 mins relative to control
Exercise: state measured inhibition for each of the molecules provided.
Answers are plain numbers, in %.

Field: example entries. Status: answers known.
O=c1ccn(COCCOP(=S)(S)OP(=O)(O)CP(=O)(O)O)c(=O)[nH]1 (centres undefined) ... 24
O=c1ccn(COCCOP(=S)(S)OP(=O)(O)OP(=O)(O)O)c(=O)[nH]1 (centres undefined) ... 31
O=c1ccn(COCCOP(=S)(S)OP(=O)(O)O)c(=O)[nH]1 (centres undefined) ... 30

Consider now this further molecule.
Request: I have this molecule here, O=c1ccn(COCCOP(=S)(S)OP(=O)(O)C(Cl)(Cl)P(=O)(O)O)c(=O)[nH]1 (centres undefined) , and I need its recorded inhibition.
Response: 21

====

For each record, write down the corresponding inhibition.
Biological target: Ectonucleotide pyrophosphatase/phosphodiesterase family member 1 (Homo sapiens) (UniProt P22413)
Sequence (P22413 whole entry): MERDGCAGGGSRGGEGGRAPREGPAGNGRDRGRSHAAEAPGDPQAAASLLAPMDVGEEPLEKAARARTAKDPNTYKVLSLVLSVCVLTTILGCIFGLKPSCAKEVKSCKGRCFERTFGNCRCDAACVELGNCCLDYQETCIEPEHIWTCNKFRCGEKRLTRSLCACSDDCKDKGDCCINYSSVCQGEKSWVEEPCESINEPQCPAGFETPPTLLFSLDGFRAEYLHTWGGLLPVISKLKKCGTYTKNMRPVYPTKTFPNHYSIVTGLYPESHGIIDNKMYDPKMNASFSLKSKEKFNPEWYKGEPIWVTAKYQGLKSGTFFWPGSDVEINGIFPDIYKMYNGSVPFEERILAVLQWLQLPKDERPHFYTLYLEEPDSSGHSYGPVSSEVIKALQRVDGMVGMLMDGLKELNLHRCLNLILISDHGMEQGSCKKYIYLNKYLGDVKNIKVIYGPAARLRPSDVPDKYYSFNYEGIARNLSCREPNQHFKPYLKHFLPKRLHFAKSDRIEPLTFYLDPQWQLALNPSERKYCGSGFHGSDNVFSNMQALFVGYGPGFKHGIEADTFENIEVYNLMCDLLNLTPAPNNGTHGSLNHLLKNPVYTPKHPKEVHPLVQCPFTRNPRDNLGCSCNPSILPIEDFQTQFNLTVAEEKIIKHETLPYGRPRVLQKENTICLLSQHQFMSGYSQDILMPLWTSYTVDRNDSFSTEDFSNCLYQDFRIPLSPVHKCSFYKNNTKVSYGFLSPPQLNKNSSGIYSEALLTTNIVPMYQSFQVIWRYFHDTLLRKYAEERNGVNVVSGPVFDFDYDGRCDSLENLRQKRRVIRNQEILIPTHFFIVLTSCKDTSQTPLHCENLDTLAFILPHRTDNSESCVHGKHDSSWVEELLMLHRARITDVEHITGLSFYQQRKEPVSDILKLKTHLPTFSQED
Assay: Inhibition of human NPP1 expressed in COS7 cell membranes at 100 uM using pNP-TMP as substrate preincubated for 3 mins followed by substrate addition and measured after 15 mins relative to control

O=c1ccn(COCCOP(=O)(O)C(Cl)(Cl)P(=O)(O)O)c(=O)[nH]1 ... 51%
O=c1ccn(COCCOP(=S)(S)OP(=O)(O)C(Cl)(Cl)P(=O)(O)O)c(=O)[nH]1 (stereo unspecified) ... 96%

For each of the items listed, what is its inhibition?
1. O=c1ccn(COCCOP(=S)(S)OP(=O)(O)OP(=O)(O)O)c(=O)[nH]1 (stereo unspecified)
2. O=c1ccn(COCCOP(=S)(S)OP(=O)(O)CP(=O)(O)O)c(=O)[nH]1 (stereo unspecified)
3. O=c1ccn(COCCOP(=S)(S)OP(=O)(O)O)c(=O)[nH]1 (stereo unspecified)
4. O=c1ccn(COCCOP(=O)(O)CP(=O)(O)O)c(=O)[nH]1

Response:
1: 96 to 98%; 2: 96%; 3: 96 to 98%; 4: 54%
